Hello, the source for this data is patent US20260364089A1, in case you need it.

Molecular target: KRas G12V (Homo sapiens, UniProt P01116, G12V)
Construct: Biotinylated KRas G12V (aa 1-169) loaded with GDP nucleotide; biotin (biotinylated)
Sequence (P01116 1-169 G12V): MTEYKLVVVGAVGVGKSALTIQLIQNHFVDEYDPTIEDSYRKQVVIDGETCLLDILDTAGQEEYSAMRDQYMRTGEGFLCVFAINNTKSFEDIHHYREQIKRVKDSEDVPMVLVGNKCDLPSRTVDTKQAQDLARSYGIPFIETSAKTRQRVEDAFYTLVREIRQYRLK
Experiment: SOS1-Catalyzed Nucleotide Exchange Assay, KRas G12V (Method 2)
Format: biochemical
Conditions: Method 2, B; 5 nM KRas G12V (aa 1-169, GDP-loaded), 50 nM SOS1; read-out: KRas G12V IC50 (nM) (Method 2, B)
Quantity kind: IC50

- O=C1CCCc2c(F)ccc3cc(O)cc(c23)-c2ncc3c(nc(OC[C@@]45CCCN4C[C@H](F)C5)nc3c2F)N2CCCC(O)(CCN1)C2 (stereo partly drawn) [Compound 136a]: ≤ 100 nM
- O=C1CCCCc2c(Cl)cc3[nH]ncc3c2-c2ccc3c(nc(OC[C@@]45CCCN4C[C@H](F)C5)nc3c2F)N2CCOCC(CN1)C2 (stereo partly drawn) [Compound 198a]: ≤ 100 nM
- O=C1CCCCc2c(Cl)cc3[nH]ncc3c2-c2ccc3c(nc(OC[C@@]45CCCN4C[C@H](F)C5)nc3c2F)N2CCCC(CCN1)C2 (single isomer, unassigned) [Compound 202b]: ≤ 100 nM
- Nc1cc(Cl)c2c(c1)-c1ccc3c(nc(OC[C@@]45CCCN4C[C@H](F)C5)nc3c1F)N1CCCC(CCNC(=O)CCCC2)C1 (stereo partly drawn) [Compound 165a]: ≤ 100 nM

Query: Tell me reported IC50 for O=C1CCCc2c(F)ccc3cc(O)cc(c23)-c2ccc3c(nc(OC[C@@]45CCCN4C[C@H](F)C5)nc3c2F)N2CCCC(CCN1)C2 (stereo partly drawn) [Compound 175a] , tested with KRas G12V (Homo sapiens, UniProt P01116, G12V).
Response: ≤ 100 nM

Query: Tell me reported IC50 for CN1CCC[C@H]1CCOc1nc2c3cnc(c(F)c3n1)-c1cc(N)cc(Cl)c1CCCCC(=O)NCCC1CCCN2C1 (stereo partly drawn) [Compound 176a] , tested with KRas G12V (Homo sapiens, UniProt P01116, G12V).
Response: 100 to 1000 nM
